From: PubChem BioAssay (EPA / NIEHS)

Assay: CCTE_Shafer_MEA_acute_cross_correlation_HWHM: CCTE's Neural Acute Assay for Cross Correlation at Half Width at Half Maximum, Shafer Lab (AID 2284026);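 also: percent change per well from pre-dose baseline in spike cross-correlogram half width; hits are a decrease in cross-correlogram half width relative to DMSO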;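 as to outcome: spontaneous network firing of rat primary cortical neurons on multiwell microelectrode arrays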
Description: CCTE_Shafer_MEA_acute assay is conducted using Axion Biosystems 48 well microelectrode array (MEA) plates and Maestro recording system. Each well of the MEA plate contains a grid of 16 microelectrodes embedded in the culture surface. Electrically active cells, such as neurons, can be cultured over the electrodes, and electrical activity in these cells can be recorded extracellularly. […]
Active and inactive are the calls of the source. The calls were made as follows: active = hit-call score of the fitted dose curve at least 0.9, where 1 is the maximum; inactive = score below 0.9.
Your reply should match one of these outcome classes. active, inactive

O=C(c1ccc(O)cc1O)c1ccc(O)cc1O    inactive
CC1(C)C(C=C(Cl)Cl)C1C(=O)OCc1cccc(Oc2ccccc2)c1 (configuration not stated)    inactive
C=CCOC(Cn1ccnc1)c1ccc(Cl)cc1Cl (configuration not stated)    active
CSC(=O)c1cccc2nnsc12    inactive
O=C(O)c1ccccc1    inactive
Cc1nn(C)c(Oc2ccccc2)c1C=NOCc1ccc(C(=O)OC(C)(C)C)cc1    active

Now look at this entry.
Query: Hello, I am checking results. What call was entered for OB(O)O ?
Response: inactive
